Data provenance is patent US20230127839A1.

As shown below, each of these compounds has a reported pEC50 value.
system-name: hSTING (Homo sapiens, UniProt Q86WV6, G230A/H232R/R293Q/R71H)
Sequence (Q86WV6 whole entry R71H/G230A/H232R/R293Q): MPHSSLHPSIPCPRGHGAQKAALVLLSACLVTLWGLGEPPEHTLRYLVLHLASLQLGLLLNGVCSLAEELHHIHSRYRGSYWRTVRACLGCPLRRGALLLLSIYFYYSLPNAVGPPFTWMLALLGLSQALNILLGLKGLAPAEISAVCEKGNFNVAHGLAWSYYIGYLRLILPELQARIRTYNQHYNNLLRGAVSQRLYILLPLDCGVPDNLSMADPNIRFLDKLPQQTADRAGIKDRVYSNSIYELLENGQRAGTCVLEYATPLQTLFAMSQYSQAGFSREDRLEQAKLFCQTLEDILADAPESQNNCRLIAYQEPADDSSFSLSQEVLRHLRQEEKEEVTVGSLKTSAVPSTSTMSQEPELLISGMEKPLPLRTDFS
procedure-text: STING reporter assay (luciferase) in THP1-Dual KO-IFNAR2 cells stimulated with 2'3'cGAMP
assay-context: 2'3'cGAMP 15 μM, 24 h, luciferase reporter activity
pEC50: −log10 of the molar value.

// query Given the compound O=C(Nc1cc(Cl)nc(C2CCC(F)(F)CC2)c1)Nc1c[nH]c2ccc(Cl)cc12 , write its reported pEC50.
// result 6.70 to 7.40

// query Given the compound COC1(C)CN(c2ncc(NC(=O)Nc3c[nH]c4cc(F)c(F)cc34)cc2Cl)C1 , write its reported pEC50.
// result 6.00 to 6.70

// query Given the compound N#Cc1ccc2[nH]cc(NC(=O)Nc3cnc(N4CCC(F)(F)CC4)c(Cl)c3)c2c1 , write its reported pEC50.
// result 6.70 to 7.40
